# Assay Notes: gradient 5% acetonitrile 3 min, to 50% in 2 min, to 85% in 15 min, held 3 min, 100 µL/min
# Experimental Setup: column: Zorbax Extend-C18 2.1 x 50 mm; eluents: water / acetonitrile, 0.1% formic acid
Observed Property: RP-LC retention time (s)

{"columns": ["Compound", "Numeric Result"],
 "data": [
  ["Cc1nnc(-c2cn(CC(=O)Nc3cccc(Br)c3)c3ccccc23)o1", 893],
  ["O=C(Cn1c(-c2cccnc2)nc2ccccc21)Nc1ccc(OC(F)(F)F)cc1", 853],
  ["O=C(c1csc(Nc2ccccc2)n1)N1CCN(c2ccccc2F)CC1", 911],
  ["Cc1ccccc1-n1nc2c(c1NC(=O)CSCc1ccccc1)CSC2", 907],
  ["CCN1C(=O)c2cc(C(=O)NCc3ccc(C)cc3)nn2CC1(C)C(=O)NC1CCCC1 (centres undefined)", 766],
  ["O=C(NC1CCCCC1)c1ccc2c(c1)N(Cc1ccccc1)C(=O)CO2", 921],
  ["Cc1ccc(F)c(NC(=O)C2CCc3nc(N4CCOCC4)ncc3C2)c1 (centres undefined)", 735],
  ["Cc1nc(-c2csc(S(=O)(=O)N3CCC(C(=O)NC4CCCCC4)CC3)c2)no1", 879],
  ["O=C(Cn1ccn2nc(-c3ccccc3)c(CO)c2c1=O)Nc1ccccc1F", 865]
]}
